pIC50 listing for selected molecules.
Target: human Fibroblast activation protein alpha (hFAP) (Homo sapiens (Human), UniProt Q12884)
Sequence (Q12884 38-760): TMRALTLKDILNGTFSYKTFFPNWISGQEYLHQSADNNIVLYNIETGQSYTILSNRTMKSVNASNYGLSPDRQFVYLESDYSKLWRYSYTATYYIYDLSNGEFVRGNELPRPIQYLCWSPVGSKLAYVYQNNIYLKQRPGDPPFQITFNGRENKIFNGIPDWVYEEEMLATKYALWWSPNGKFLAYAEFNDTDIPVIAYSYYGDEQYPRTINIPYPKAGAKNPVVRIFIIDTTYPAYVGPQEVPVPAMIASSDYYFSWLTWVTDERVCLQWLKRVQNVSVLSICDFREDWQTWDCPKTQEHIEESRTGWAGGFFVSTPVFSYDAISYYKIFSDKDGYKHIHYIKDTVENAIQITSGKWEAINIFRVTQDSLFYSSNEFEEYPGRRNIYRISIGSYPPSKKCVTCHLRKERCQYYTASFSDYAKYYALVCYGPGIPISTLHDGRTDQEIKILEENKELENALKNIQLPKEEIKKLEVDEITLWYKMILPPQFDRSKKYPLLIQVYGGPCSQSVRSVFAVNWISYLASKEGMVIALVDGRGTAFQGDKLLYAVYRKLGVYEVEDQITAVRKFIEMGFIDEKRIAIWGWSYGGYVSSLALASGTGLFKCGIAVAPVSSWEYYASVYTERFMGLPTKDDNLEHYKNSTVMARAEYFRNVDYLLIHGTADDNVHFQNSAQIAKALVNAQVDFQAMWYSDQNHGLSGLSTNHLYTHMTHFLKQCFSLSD
Keep in mind that pIC50 stands for -log10 of concentration in molar terms.

Field: example entries. Status: answers known.
CCOC1(c2ccc3c(C(=O)NCC(=O)N4[C@H](C#N)C[C@@H]5C[C@@H]54)ccnc3c2)CC1 | 9.39
N#C[C@@H]1C[C@@H]2C[C@@H]2N1C(=O)CNC(=O)c1ccnc2cc(CF)ccc12 | 9.52
COC(C)c1ccc2nccc(C(=O)NCC(=O)N3[C@H](C#N)C[C@@H]4C[C@@H]43)c2c1 (some centres unmarked) | 8.96
N#C[C@@H]1C[C@@H]2C[C@@H]2N1C(=O)CNC(=O)c1ccnc2ccc(C3(C#N)CC3)cc12 | 9.74

Next molecule, please.
Find pIC50 (human Fibroblast activation protein alpha (hFAP) (Homo sapiens (Human), UniProt Q12884)) for the entry CC(O)c1ccc2nccc(C(=O)NCC(=O)N3[C@H](C#N)C[C@@H]4C[C@@H]43)c2c1 (some centres unmarked)
9.04

----------
rHeps CLint listing for selected molecules.
Test system: Rat Hepatocytes (rHep)
Assay: Metabolic stability in rat hepatocytes (rHep)
Type: in vitro ADME
Numeric only. Scale: μL/min/1E6

N#C[C@@H]1C[C@@H]2C[C@@H]2N1C(=O)CNC(=O)c1ccnc2ccc(COC(F)(F)F)cc12 [Example 17] | 21

Next molecule, please.
Need rHeps CLint of CC(OC(F)(F)F)c1ccc2c(C(=O)NCC(=O)N3[C@H](C#N)C[C@@H]4C[C@@H]43)ccnc2c1 (stereo partly drawn) [Example 30] , thanks.
16

----------
Test system: Rat Hepatocytes (rHep)
Experiment: Metabolic stability in rat hepatocytes (rHep)
Format: in vitro ADME
rHeps CLint listing for selected molecules.
Numeric only. Scale: μL/min/1E6

Field: example entries. Status: answers known.
CC(C)(F)c1ccc2c(C(=O)NCC(=O)N3[C@H](C#N)C[C@@H]4C[C@@H]43)ccnc2c1 [Example 21] | 70
COC(C)c1ccc2nccc(C(=O)NCC(=O)N3[C@H](C#N)C[C@@H]4C[C@@H]43)c2c1 (stereo partly shown) [Example 15] | 9.4
CC(C)(O)c1ccc2nccc(C(=O)NCC(=O)N3[C@H](C#N)C[C@@H]4C[C@@H]43)c2c1 [Example 13] | 2

Next molecule, please.
Need rHeps CLint of N#C[C@@H]1C[C@@H]2C[C@@H]2N1C(=O)CNC(=O)c1ccnc2cc(Br)ccc12 [Example 3] , thanks.
4.5

----------
Experiment: Kinetic solubility
Format: physicochemical
Settings: kinetic from dmso stock
property: solubility (µM)
Numeric only. Scale: µM

Field: example entries. Status: answers known.
N#C[C@@H]1C[C@@H]2C[C@@H]2N1C(=O)CNC(=O)c1ccnc2ccc(C3(C(F)(F)F)CC3)cc12 | 510
N#C[C@@H]1C[C@@H]2C[C@@H]2N1C(=O)CNC(=O)c1ccnc2ccc(CF)cc12 | 970
CC(C)(F)c1ccc2nccc(C(=O)NCC(=O)N3[C@H](C#N)C[C@@H]4C[C@@H]43)c2c1 | 300
Cc1cc(C(=O)NCC(=O)N2[C@H](C#N)C[C@@H]3C[C@@H]32)c2cc(Cl)ccc2n1 | 140
Cc1cc(C(=O)NCC(=O)N2[C@H](C#N)C[C@@H]3C[C@@H]32)c2cc(I)ccc2n1 | 23
N#C[C@@H]1C[C@@H]2C[C@@H]2N1C(=O)CNC(=O)c1ccnc2ccc(OCC3CC3)cc12 | 590

Need solubility of CC(C)(F)c1ccc2c(C(=O)NCC(=O)N3[C@H](C#N)C[C@@H]4C[C@@H]43)ccnc2c1 , thanks.
56

Need solubility of N#C[C@@H]1C[C@@H]2C[C@@H]2N1C(=O)CNC(=O)c1ccnc2cc(COC(F)(F)F)ccc12 , thanks.
23

Need solubility of N#C[C@@H]1C[C@@H]2C[C@@H]2N1C(=O)CNC(=O)c1ccnc2ccc(OC3CCC(F)(F)CC3)cc12 , thanks.
430

Need solubility of Cc1cc(C(=O)NCC(=O)N2[C@H](C#N)C[C@@H]3C[C@@H]32)c2ccc(F)cc2n1 , thanks.
890

Need solubility of N#C[C@@H]1C[C@@H]2C[C@@H]2N1C(=O)CNC(=O)c1ccnc2cc(C3(C#N)CC3)ccc12 , thanks.
570

Need solubility of N#C[C@@H]1C[C@@H]2C[C@@H]2N1C(=O)CNC(=O)c1ccnc2cc(C3(C(F)(F)F)CC3)ccc12 , thanks.
210

Need solubility of CC(C)Oc1ccc2nccc(C(=O)NCC(=O)N3[C@H](C#N)C[C@@H]4C[C@@H]43)c2c1 , thanks.
850

Need solubility of COc1ccc2c(C(=O)NCC(=O)N3[C@H](C#N)C[C@@H]4C[C@@H]43)cc(C)nc2c1 , thanks.
120

Need solubility of N#C[C@@H]1C[C@@H]2C[C@@H]2N1C(=O)CNC(=O)c1ccnc2ccc(C(F)(F)F)cc12 , thanks.
140

----------
Molecular target: hFAP (Homo sapiens (Human), UniProt Q12884);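 further: fluorescence read after incubating enzyme with substrate at room temperature, IC50 fitted from percent inhibition against log concentration with a one-site model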
Sequence (Q12884 38-760): as above
Please assign condition not met whenever IC50 is at or above 4 nM, and condition met whenever it is below.

Reference set (5 entries):
CCOC1(c2ccc3c(C(=O)NCC(=O)N4[C@H](C#N)C[C@@H]5C[C@@H]54)ccnc3c2)CC1 | condition met
COC(C)(C)c1ccc2nccc(C(=O)NCC(=O)N3[C@H](C#N)C[C@@H]4C[C@@H]43)c2c1 | condition not met
CC(C)(O)c1ccc2nccc(C(=O)NCC(=O)N3[C@H](C#N)C[C@@H]4C[C@@H]43)c2c1 | condition met
Cc1ccc2c(C(=O)NCC(=O)N3[C@H](C#N)C[C@@H]4C[C@@H]43)cc(C)nc2c1 | condition not met
COC(C)c1ccc2c(C(=O)NCC(=O)N3[C@H](C#N)C[C@@H]4C[C@@H]43)ccnc2c1 (stereo partly shown) | condition not met

For N#C[C@@H]1C[C@@H]2C[C@@H]2N1C(=O)CNC(=O)c1ccnc2ccc(C3CC3)cc12 , is the recorded IC50 below the cut-off of 4 nM?
condition not met

For N#C[C@@H]1C[C@@H]2C[C@@H]2N1C(=O)CNC(=O)c1ccnc2cc(C3CC3)ccc12 , is the recorded IC50 below the cut-off of 4 nM?
condition met

----------
solubility listing for selected compounds.
Assay: Kinetic solubility
Type: physicochemical
Conditions: kinetic from dmso stock

Field: example entries. Status: answers known.
COC(C)(C)c1ccc2nccc(C(=O)NCC(=O)N3[C@H](C#N)C[C@@H]4C[C@@H]43)c2c1 | > 1000 µM
N#C[C@@H]1C[C@@H]2C[C@@H]2N1C(=O)CNC(=O)c1ccnc2cc(C(F)(F)F)ccc12 | > 1000 µM

Need solubility of CC(C)(O)c1ccc2nccc(C(=O)NCC(=O)N3[C@H](C#N)C[C@@H]4C[C@@H]43)c2c1 , thanks.
> 1000 µM

----------
Test system: Rat Hepatocytes (rHep)
Test: Metabolic stability in rat hepatocytes (rHep)
Assay type: in vitro ADME
property: rHeps CLint

Field: example entries. Status: answers known.
CC(O)c1ccc2nccc(C(=O)NCC(=O)N3[C@H](C#N)C[C@@H]4C[C@@H]43)c2c1 (stereo partly drawn) | <1 μL/min/1E6
CC(O)c1ccc2c(C(=O)NCC(=O)N3[C@H](C#N)C[C@@H]4C[C@@H]43)ccnc2c1 (stereo partly drawn) | <1 μL/min/1E6

Find rHeps CLint (Rat Hepatocytes (rHep)) for the entry Cc1ccc2c(C(=O)NCC(=O)N3[C@H](C#N)C[C@@H]4C[C@@H]43)ccnc2c1
<2 μL/min/1E6
